# MEASUREMENT_TARGET: Leucine aminopeptidase (Plasmodium falciparum (isolate 3D7)) (UniProt Q8IL11)
# Sequence (Q8IL11 whole entry, looked up): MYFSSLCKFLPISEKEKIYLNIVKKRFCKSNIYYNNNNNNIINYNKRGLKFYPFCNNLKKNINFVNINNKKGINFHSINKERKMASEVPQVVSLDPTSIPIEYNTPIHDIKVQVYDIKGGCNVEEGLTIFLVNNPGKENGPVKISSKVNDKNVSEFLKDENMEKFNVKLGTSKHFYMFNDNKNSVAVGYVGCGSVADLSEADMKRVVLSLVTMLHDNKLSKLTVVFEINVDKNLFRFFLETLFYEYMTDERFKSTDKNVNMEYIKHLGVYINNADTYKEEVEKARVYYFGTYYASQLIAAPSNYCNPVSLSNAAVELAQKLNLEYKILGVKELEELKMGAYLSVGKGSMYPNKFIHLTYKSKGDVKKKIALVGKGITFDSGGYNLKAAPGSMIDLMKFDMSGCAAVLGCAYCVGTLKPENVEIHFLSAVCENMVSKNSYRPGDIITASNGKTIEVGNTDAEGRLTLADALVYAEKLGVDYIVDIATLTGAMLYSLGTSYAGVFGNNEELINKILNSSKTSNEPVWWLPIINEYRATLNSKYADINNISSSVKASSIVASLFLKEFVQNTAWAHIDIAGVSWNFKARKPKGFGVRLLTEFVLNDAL
# ASSAY: P. falciparum M17LAP inhibitors, primary screen, biochemical, fluorogenic H-Leu-NHMec substrate, 1536-well (AID 1619);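 also: plate controls were full reaction with DMSO carrier for no effect and no enzyme background for full effect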
# CONDITION_NOTES: recombinant M17LAP, H-Leu-NHMec fluorogenic kinetic assay; at 30 µM; stronger effect = higher value
The whole screen tested about 220,000 compounds, of which about 830 (0.38%) were called active. Not all results are given here. Measured potencies and affinities stand elsewhere.
Listing of recorded inhibition by entry.
VALUE_TYPE: inhibition (%)

molecule=CCOc1ccc(NC(=O)c2ccc(NCC(=O)N3CCCCCC3)cc2)cc1 test_result=-2.72
molecule=CC(=O)/C(=N\Nc1cccc(Cl)c1)Sc1nnc(-c2ccccc2)n1-c1ccccc1 test_result=-10.1
molecule=CN(C)CCNC(=O)C(c1ccccc1)c1ccccc1 test_result=4.43
molecule="O=C(NNC(=O)C1[C@H]2CCCC[C@@H]12)Nc1cccc2ccccc12 (stereo not given in full)" test_result=0.58
molecule="CCc1ccc(-n2c(SCC(=O)N3Cc4ccccc4CC3C(=O)O)nnc2-c2ccncc2)cc1 (stereo not given)" test_result=-6.38
molecule=CCOc1ccc(NC(=S)NCc2nc3ccccc3[nH]2)cc1 test_result=-5.56
molecule=COc1ccc(C(C)C)cc1S(=O)(=O)n1ccnc1C test_result=-18.1
molecule=Cn1c(=O)[nH]c(=O)c2c1nc(NC1CCCCC1)n2CC(=O)NC1CCCCC1 test_result=10.2
molecule="CC1=C(C(=O)OC(C)C)C(c2cn(-c3ccccc3)nc2-c2cccs2)NC(=O)N1 (stereo not given)" test_result=2.02
molecule=Cn1c(=O)c2c(nc(Br)n2Cc2ccccc2Cl)n(C)c1=O test_result=0.26

====

# MEASUREMENT_TARGET: Leucine aminopeptidase (Plasmodium falciparum (isolate 3D7)) (UniProt Q8IL11)
# ASSAY: P. falciparum M17LAP inhibitors, primary screen, biochemical, fluorogenic H-Leu-NHMec substrate, 1536-well (AID 1619);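 also: plate controls were full reaction with DMSO carrier for no effect and no enzyme background for full effect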
# CONDITION_NOTES: recombinant M17LAP, H-Leu-NHMec fluorogenic kinetic assay; at 30 µM; stronger effect = higher value
Screen size: about 220,000 compounds; about 830 (0.38%) were called active. Not all results are given here. Potency and affinity values are given separately.
Listing of recorded inhibition by entry.
VALUE_TYPE: inhibition (%)

compound="CC1CC(CC(=O)Nc2nc(-c3ccccc3)cs2)C(=O)O1 (configuration not stated)" units_text=% test_result=2.05
compound=O=C(c1cnc2n(c1=O)CCS2)N(C1CCCCC1)C1CCCCC1 units_text=% test_result=11.3
compound=CCCn1c(NCc2cccc(OC)c2O)nc2ccccc21 units_text=% test_result=-4.67
compound=CCOC(=O)c1cn(Cc2ccccc2)nn1 units_text=% test_result=-4.7
compound=CCc1n[n+](CC(=O)c2ccccc2)c(N)s1 units_text=% test_result=-0.05
compound="CC1(C)CC(CC(=O)NNc2nc(-c3ccccc3)cs2)C(=O)O1 (configuration not stated)" units_text=% test_result=12.7
compound=CCOC(=O)c1nnn(-c2nonc2-n2cccc2)c1CCl units_text=% test_result=7.36
compound=COc1ccc(NC(=O)CSc2nc(O)cc(=O)[nH]2)c(OC)c1 units_text=% test_result=14.7
compound="COC(=O)C(C(=O)NCC1CCCO1)C1CCCCCC1 (configuration not stated)" units_text=% test_result=13.6
compound=COc1ccccc1N1CCN(C(=O)CSc2nc(N)cc(=O)[nH]2)CC1 units_text=% test_result=-20.8
compound=Nc1nc(SCC(=O)Nc2ncc(C(F)(F)F)cc2Cl)n[nH]1 units_text=% test_result=1.49
compound=COc1ccccc1NC(=O)CSc1nccc(=O)[nH]1 units_text=% test_result=28.1

Data provenance: PubChem BioAssay AID1619
